Assay: Microsomal stability, human liver microsomes (predicted hepatic clearance)
Details: predicted from in vitro microsomal stability data
value-kind: Predicted Hepatic Clearance (Pred. Cl.) (mL/min/kg)
State the answer as a number, implicitly in mL/min/kg.

Please review the entries below; each comes with its answer.
INSERT INTO results (compound, reported_value) VALUES
  ('N#Cc1ccc(COc2cccc(-c3ccc(Cc4nc5ccc(C(=O)O)cc5n4[C@@H]4CCOC4)c(F)c3)n2)c(F)c1 [Example 225]', 3.5),
  ('N#Cc1ccc(COc2cccc(-c3ccc(Cc4nc5ccc(C(=O)O)cc5n4CC4(n5ccnn5)CC4)cc3F)n2)c(F)c1 [Example 457]', 7.83),
  ('N#Cc1ccc(COc2cccc(-c3cc(F)c(Cc4nc5ccc(C(=O)O)cc5n4C4CCOCC4)cc3F)n2)c(F)c1 [Example 547]', 7.33),
  ('COCCn1c(Cc2ccc(-c3cc(C(=O)O)cc(OCc4ccc(C#N)cc4F)n3)cc2F)nc2ccc(C(=O)O)cc21 [Example 97]', 3.5),
  ('COC(=O)N1CCC[C@@H]1Cn1c(Cc2cc(F)c(-c3cccc(OCc4ccc(C#N)cc4F)n3)cc2F)nc2ccc(C(=O)O)cc21 [Example 589]', 8.17),
  ('COCCn1c(Cc2ccc(-c3nccc(OCc4ccc(C#N)cc4F)n3)cc2F)nc2ccc(C(=O)O)cc21 [Example 25]', 7.33),
  ('N#Cc1ccc(COc2cccc(-c3cc(F)c(Cc4nc5ccc(C(=O)O)cc5n4CC4CC5(COC5)C4)cc3F)n2)c(F)c1 [Example 653]', 2.67),
  ('N#Cc1ccc(COc2cccc(-c3cc(F)c(Cc4nc5ccc(C(=O)O)cc5n4CC4(n5cncn5)CC4)cc3F)n2)c(F)c1 [Example 274]', 8),
  ('CO[C@H]1COC[C@@H]1n1c(Cc2cc(F)c(-c3cccc(OCc4ccc(C#N)cc4F)n3)cc2F)nc2ccc(C(=O)O)cc21 [Example 712]', 6.83),
  ('N#CCC1(Cn2c(Cc3ccc(-c4ccnc(OCc5ccc(Cl)cc5F)n4)cc3F)nc3ccc(C(=O)O)cc32)CC1 [Example 79]', 8.83);

Task: I am curious: what Predicted Hepatic Clearance (Pred. Cl.) value has been reported for COCCn1c(Cc2ccc(-c3cccc(OCc4cccc5ncsc45)n3)cc2F)nc2ccc(C(=O)O)cc21 [Example 148] ?
Result: 11.5

Task: For COc1cc(C#N)ccc1COc1nccc(-c2cc(F)c(Cc3nc4ccc(C(=O)O)cc4n3CC3(CC#N)CC3)cc2F)n1 [Example 417] then?
Result: 12.7

Task: Another compound to check: C[C@@]1(Cn2c(Cc3ccc(-c4cccc(OCc5ccc(C#N)cc5F)n4)cc3F)nc3ccc(C(=O)O)cc32)CCO1 [Example 105]
Result: 6.33
